Test: Phase I single-ascending dose (SAD) pharmacokinetics incl. food effect, plasma concentration of the Compound
Format: in vivo, human
Conditions: human, plasma, po, 10 mg, single PO dose 10 mg, fasted, healthy subjects; read-out: T1/2 (converted)
Experimental: A phase I randomized, double-blind, placebo-controlled, adaptive-design, single-ascending dose (SAD) and multiple-ascending dose (MAD) study was conducted in healthy human subjects to evaluate the safety, tolerability, pharmacokinetics (PK), pharmacodynamics (PD), food effect, and optimal oral dose of 3-((1-cyclohexyl-4-oxo-8-(4-oxo-4-phenylbutyl)-1,3,8-triazaspiro[4.5]decan-3-yl)methyl)benzoic acid maleate (hereinafter, “the Maleate Salt”). […]
Counter-ions that a name gives are not always drawn.
assay metric: half-life

Entry O=C(O)c1cccc(CN2CN(C3CCCCC3)C3(CCN(CCCC(=O)c4ccccc4)CC3)C2=O)c1 [the Maleate Salt] needs its half-life filled in; supply it.
~1.6 h

---

Assay: Phase I single-ascending dose (SAD) pharmacokinetics incl. food effect, plasma concentration of the Compound
Format: in vivo, human
Conditions: human, plasma, po, 200 mg, single PO dose 200 mg, fasted, healthy subjects
Where a name gives a salt, the structure may show the parent alone.
assay metric: Cmax (ng/mL)
Write the number in ng/mL without appending the unit.

// Input: O=C(O)c1cccc(CN2CN(C3CCCCC3)C3(CCN(CCCC(=O)c4ccccc4)CC3)C2=O)c1 [the Maleate Salt] . Output its Cmax only.
106

---

Experiment: Phase I multiple-ascending dose (MAD) pharmacokinetics, BID Days 1-4 and single morning dose Day 5
Assay type: in vivo, human
Details: human, plasma, po, 50 mg, 50 mg BID PO, fasting, Day 1
Structures can show the parent of a compound that is named as a salt.
assay metric: Cmax

Give the value of Cmax reported for the following: O=C(O)c1cccc(CN2CN(C3CCCCC3)C3(CCN(CCCC(=O)c4ccccc4)CC3)C2=O)c1 [the Maleate Salt]
23.3 ng/mL

---

Experiment: Phase I single-ascending dose (SAD) pharmacokinetics incl. food effect, plasma concentration of the Compound
Format: in vivo, human
Settings: human, plasma, po, 50 mg, single PO dose 50 mg, fasted, healthy subjects
Where a name gives a salt, the structure may show the parent alone.
assay metric: Cmax (ng/mL)
// units = ng/mL; emit number, no label

Fill in reported Cmax for this entry: O=C(O)c1cccc(CN2CN(C3CCCCC3)C3(CCN(CCCC(=O)c4ccccc4)CC3)C2=O)c1 [the Maleate Salt]
22

---

Experiment: Phase I single-ascending dose (SAD) pharmacokinetics incl. food effect, plasma concentration of the Compound
Format: in vivo, human
Conditions: human, plasma, po, 5 mg, single PO dose 5 mg, fasted, healthy subjects
Where a name gives a salt, the structure may show the parent alone.
assay metric: AUC(0-t)

Fill in reported AUC(0-t) for this entry: O=C(O)c1cccc(CN2CN(C3CCCCC3)C3(CCN(CCCC(=O)c4ccccc4)CC3)C2=O)c1 [the Maleate Salt]
4.3 ng·h/mL

---

Test: Phase I multiple-ascending dose (MAD) pharmacokinetics, BID Days 1-4 and single morning dose Day 5
Assay type: in vivo, human
Settings: human, plasma, po, 50 mg, 50 mg BID PO, fasting, Day 1
Counter-ions that a name gives are not always drawn.
assay metric: Tmax (h)
Your answer should be a plain number; it is taken to be in h.

Item O=C(O)c1cccc(CN2CN(C3CCCCC3)C3(CCN(CCCC(=O)c4ccccc4)CC3)C2=O)c1 [the Maleate Salt] : provide Tmax
1.55

FYI, the data here is from patent US11202776B2.
